test: Single dose bioavailability study in the non-fasted state, 4 mg immediate release carbinoxamine maleate tablet; format: in vivo; settings: human, plasma, po, 4 mg, nonfasted, subject 102
Measure: AUC(0-t) (ng·h/mL)

>>> print(df.to_string())
                                   molecule      uom  test_result
0  CN(C)CCOC(c1ccc(Cl)cc1)c1ccccn1 (stereo not shown)  ng·h/mL          292

###

assay: Single dose fasted bioavailability study, 4 mg immediate release carbinoxamine maleate tablet; format: in vivo; settings: human, plasma, po, 4 mg, fasted, subject 103
Measure: MRT (h)

                                   compound  test_result
0  CN(C)CCOC(c1ccc(Cl)cc1)c1ccccn1 (stereo not shown)         21.7

###

test: Single dose fasted bioavailability study, 4 mg immediate release carbinoxamine maleate tablet; type: in vivo; settings: human, plasma, po, 4 mg, fasted, Mean
Measure: AUC(0-t) (ng·h/mL)

                                   compound  test_result
0  CN(C)CCOC(c1ccc(Cl)cc1)c1ccccn1 (stereo not shown)          161

###

test: Single dose fasted bioavailability study, 4 mg immediate release carbinoxamine maleate tablet; format: in vivo; conditions: human, plasma, po, 4 mg, Our study, Tablet 4 mg
Measure: Tmax (h)

In [3]: df
Out[3]:
                                   compound  measure  uom  test_result
0  CN(C)CCOC(c1ccc(Cl)cc1)c1ccccn1 (stereo not shown)     Tmax    h          3.3

###

assay: Single dose bioavailability study in the non-fasted state, 4 mg immediate release carbinoxamine maleate tablet; format: in vivo; details: human, plasma, po, 4 mg, nonfasted, subject 103
Measure: MRT (h)

>>> df
                                   molecule  test_result
0  CN(C)CCOC(c1ccc(Cl)cc1)c1ccccn1 (stereo not shown) [carbinoxamine]         23.4

###

test: Single dose bioavailability study in the non-fasted state, 4 mg immediate release carbinoxamine maleate tablet; type: in vivo; settings: human, plasma, po, 4 mg, nonfasted, Mean
Measure: half-life

                                   molecule    measure  test_result
0  CN(C)CCOC(c1ccc(Cl)cc1)c1ccccn1 (stereo not shown) [carbinoxamine]  half-life         19 h

###

experiment: Single dose fasted bioavailability study, 4 mg immediate release carbinoxamine maleate tablet; format: in vivo; conditions: human, plasma, po, 4 mg, fasted, subject 102
Measure: Tmax (h)

In [3]: df
Out[3]:
                                   compound  measure  test_result
0  CN(C)CCOC(c1ccc(Cl)cc1)c1ccccn1 (stereo not shown)     Tmax            5

###

test: Single dose fasted bioavailability study, 4 mg immediate release carbinoxamine maleate tablet; type: in vivo; conditions: human, plasma, po, 4 mg, fasted, subject 103
Measure: Cmax (ng/mL)

In [3]: df
Out[3]:
                                   compound    uom  test_result
0  CN(C)CCOC(c1ccc(Cl)cc1)c1ccccn1 (stereo not shown) [carbinoxamine]  ng/mL         7.05

###

assay: Single dose fasted bioavailability study, 4 mg immediate release carbinoxamine maleate tablet; format: in vivo; details: human, plasma, po, 4 mg, fasted, subject 101
Measure: Tmax (h)

In [3]: df
Out[3]:
                                   compound  test_result
0  CN(C)CCOC(c1ccc(Cl)cc1)c1ccccn1 (stereo not shown) [carbinoxamine]            3
